FYI, the data here is from the Human Domainome abundance scans (Beltran et al. 2025).

B1: Homeobox expressed in ES cells 1, residues 110 to 165; numbered along this chain, Q9UBX0 (parent)
chain: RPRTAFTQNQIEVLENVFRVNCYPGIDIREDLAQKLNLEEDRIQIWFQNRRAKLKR

Variants of: B1
measurementProtocol: abundance fitness (aPCA) (normalised: wild type 0, dead -1); higher = more abundant; growth selection in yeast, the domain comes from the species named
settings: Homo sapiens
Outcome label depends on abundance fitness relative to -0.3: at/above gives condition met, below gives condition not met.

sequenceChange: G25L
qualitativeLabel: condition not met
--
sequenceChange: T7M
qualitativeLabel: condition met
--
sequenceChange: L32V
qualitativeLabel: condition not met
--
sequenceChange: V17A
qualitativeLabel: condition met
--
sequenceChange: V13A
qualitativeLabel: condition met
--
sequenceChange: V17Q
qualitativeLabel: condition not met
--
sequenceChange: A5H
qualitativeLabel: condition met
--
sequenceChange: I28S
qualitativeLabel: condition not met
--
sequenceChange: T4D
qualitativeLabel: condition met
--
sequenceChange: V20A
qualitativeLabel: condition met
--
sequenceChange: V13K
qualitativeLabel: condition not met
--
sequenceChange: G25S
qualitativeLabel: condition met
--
sequenceChange: R29G
qualitativeLabel: condition not met
--
sequenceChange: N21A
qualitativeLabel: condition not met
--
sequenceChange: T7P
qualitativeLabel: condition not met
--
sequenceChange: V13S
qualitativeLabel: condition met
--
sequenceChange: T7L
qualitativeLabel: condition not met
--
sequenceChange: P24I
qualitativeLabel: condition not met
--
sequenceChange: N21V
qualitativeLabel: condition not met
--
sequenceChange: D27I
qualitativeLabel: condition not met
--
sequenceChange: A5R
qualitativeLabel: condition met
--
sequenceChange: F6A
qualitativeLabel: condition not met
--
sequenceChange: R29Y
qualitativeLabel: condition met
--
sequenceChange: Q8H
qualitativeLabel: condition not met
--
sequenceChange: V13F
qualitativeLabel: condition not met
--
sequenceChange: R1C
qualitativeLabel: condition met
--
sequenceChange: R29A
qualitativeLabel: condition met
--
sequenceChange: Y23M
qualitativeLabel: condition not met
--
sequenceChange: E30K
qualitativeLabel: condition met
--
sequenceChange: N9V
qualitativeLabel: condition met
--
sequenceChange: A5C
qualitativeLabel: condition met
--
sequenceChange: E12C
qualitativeLabel: condition not met
--
sequenceChange: C22A
qualitativeLabel: condition met
--
sequenceChange: F6V
qualitativeLabel: condition met
--
sequenceChange: F6C
qualitativeLabel: condition not met
--
sequenceChange: F18C
qualitativeLabel: condition not met
--
sequenceChange: Q34A
qualitativeLabel: condition not met
--
sequenceChange: I28Y
qualitativeLabel: condition not met
--
sequenceChange: R19W
qualitativeLabel: condition not met
--
sequenceChange: T4P
qualitativeLabel: condition met
--
sequenceChange: D31Y
qualitativeLabel: condition met
--
sequenceChange: R19V
qualitativeLabel: condition met
--
sequenceChange: C22G
qualitativeLabel: condition met
--
sequenceChange: Q10E
qualitativeLabel: condition met
--
sequenceChange: E30W
qualitativeLabel: condition met
--
sequenceChange: P24L
qualitativeLabel: condition not met
--
sequenceChange: E12T
qualitativeLabel: condition met
--
sequenceChange: C22R
qualitativeLabel: condition met
--
sequenceChange: D27L
qualitativeLabel: condition met
--
sequenceChange: F18G
qualitativeLabel: condition not met
--
sequenceChange: Q34E
qualitativeLabel: condition met
--
sequenceChange: L32D
qualitativeLabel: condition not met
